biological target: purified HLA DRB1*0701 (Homo sapiens, UniProt P01903+P01911, A100R/A102G/A103Q/D57E/D86V/E43K/F76Y/K127E/L162R/M171V/P40G/Q125H/Q99D/R33Q/R42Y/R54Q/S133A/S66F/T210M/V115G/Y107V/Y59L/Y89S); construct: purified from EBV transformed homozygous cell lines or single MHC allele transfected 721.221, C1R, or fibroblast lines; made in house; assay: HLA-DR radioligand binding inhibition assay, DRB1*0701; details: IC50 nM purified HLA DRB1 *0701, purified HLA DRB1*0701
Listed here are compounds together with their documented IC50.
Quick note: give the figure in nM, leave out the unit.

Study these solved cases before continuing.
CC(C)C[C@H](NC(=O)[C@H](CC(C)C)NC(=O)[C@H](CCC(N)=O)NC(=O)[C@H](CC(C)C)NC(=O)[C@H](CCCNC(=N)N)NC(=O)[C@H](CO)NC(=O)[C@H](CCCCN)NC(=O)[C@H](CCCCN)NC(=O)[C@@H](NC(=O)[C@@H]1CCCN1C(=O)[C@H](CCC(=O)O)NC(=O)[C@@H](N)CC(C)C)C(C)C)C(=O)NCC(=O)N[C@@H](C)C(=O)N[C@H](C(=O)O)[C@@H](C)O [Peptide 9019.0155] | 2150
CC(C)C[C@H](NC(=O)CNC(=O)[C@H](CC(C)C)NC(=O)[C@H](Cc1c[nH]cn1)NC(=O)[C@H](Cc1c[nH]cn1)NC(=O)[C@H](CCCCN)NC(=O)CN)C(=O)N[C@@H](CCC(=O)O)C(=O)N[C@@H](CCC(=O)O)C(=O)N1CCC[C@H]1C(=O)N[C@@H](CCCCN)C(=O)N[C@@H](CCCCN)C(=O)N[C@@H](CC(C)C)C(=O)N[C@@H](CCCNC(=N)N)C(=O)N1CCC[C@H]1C(=O)O [Peptide 9019.0187] | 3100
CC[C@H](C)[C@H](NC(=O)CNC(=O)[C@@H](NC(=O)[C@@H](NC(=O)[C@H](C)NC(=O)CNC(=O)[C@H](C)NC(=O)[C@H](CO)NC(=O)[C@H](CC(C)C)NC(=O)CNC(=O)[C@@H]1CCCN1C(=O)[C@@H](N)CO)[C@@H](C)O)C(C)C)C(=O)N[C@@H](CCSC)C(=O)N[C@H](C(=O)NCC(=O)O)[C@@H](C)CC [Peptide 9019.0144] | 92

As a next step, examine the compound that follows.
*Q* What IC50 value was documented for this compound, CC[C@H](C)[C@H](NC(=O)[C@@H](NC(=O)[C@H](CO)NC(=O)[C@H](CC(=O)O)NC(=O)[C@@H](N)CO)C(C)C)C(=O)N[C@@H](CC(C)C)C(=O)N[C@@H](CC(N)=O)C(=O)N[C@H](C(=O)N[C@@H](CC(C)C)C(=O)N[C@@H](Cc1ccc(O)cc1)C(=O)NCC(=O)N1CCC[C@H]1C(=O)N[C@@H](CC(=O)O)C(=O)N[C@@H](C)C(=O)N1CCC[C@H]1C(=O)O)C(C)C [Peptide 9019.0119] ?
*A* 5240

---

target: purified HLA DRB1*1201 (Homo sapiens, UniProt P01903+P01911, A100R/A169T/D57E/D86V/F55L/H45Y/K41T/L162R/M171V/P40S/Q125H/Q178H/Q39Y/Q99D/R42G/S66L/T262R/V114A/V67L/W38E/Y59H/Y61H/Y89S); construct: purified from EBV transformed homozygous cell lines or single MHC allele transfected 721.221, C1R, or fibroblast lines; made in house; experiment: HLA-DR radioligand binding inhibition assay, DRB1*1201
OBSERVATION_TYPE: IC50 (nM)
Quick note: give the figure in nM, leave out the unit.

CC[C@H](C)[C@H](NC(=O)[C@H](CCCNC(=N)N)NC(=O)CNC(=O)[C@H](CCCNC(=N)N)NC(=O)[C@@H](NC(=O)[C@@H](NC(=O)[C@H](CCC(N)=O)NC(=O)[C@H](CC(C)C)NC(=O)[C@@H](N)CC(N)=O)C(C)C)[C@@H](C)CC)C(=O)N[C@@H](CC(C)C)C(=O)N[C@@H](Cc1c[nH]cn1)C(=O)N[C@@H](CC(N)=O)C(=O)NCC(=O)N[C@@H](C)C(=O)N[C@@H](Cc1ccc(O)cc1)C(=O)O [Peptide 9019.0053] | 47

As a next step, examine the compound that follows.
*Q* What IC50 value was documented for this compound, CC[C@H](C)[C@H](NC(=O)[C@@H](NC(=O)[C@@H]1CCCN1C(=O)[C@H](C)N)[C@@H](C)O)C(=O)N[C@@H](CCCNC(=N)N)C(=O)NCC(=O)N[C@@H](CC(=O)O)C(=O)N1CCC[C@H]1C(=O)N[C@@H](CCC(=O)O)C(=O)N[C@@H](CS)C(=O)N[C@@H](Cc1c[nH]cn1)C(=O)N[C@@H](CC(C)C)C(=O)N[C@@H](Cc1ccccc1)C(=O)N[C@@H](Cc1ccc(O)cc1)C(=O)N[C@@H](CC(N)=O)C(=O)O [Peptide 9019.0022] ?
*A* 16900

---

Molecular target: purified HLA DRB1*0405 (Homo sapiens, UniProt P01903+P01911, A100R/A169T/D86S/F76Y/I96L/K127E/L162R/M171V/N62H/P40V/Q125Y/R42H/S133A/S149N/S66Y/V115G/V209L/W38E)
Construct: purified from EBV transformed homozygous cell lines or single MHC allele transfected 721.221, C1R, or fibroblast lines; made in house
Assay: HLA-DR radioligand binding inhibition assay, DRB1*0405
Details: IC50 nM purified HLA DRB1 *0405, purified HLA DRB1*0405
Experimental: Instead, wells of an opaque white 96-well Optiplate (Packard) are coated with 3 μg (100 μl@ 30 μg/ml) of HLA-specific antibody (Ab) that “capture” complexes of radiolabeled MHC and unlabeled peptide transferred from the molecular binding assay plate in 100 μl of 0.05% NP40/PBS. […] Captured complexes are then measured on a microplate scintillation and luminescence counter (TopCount NXTTM; Packard). […]
OBSERVATION_TYPE: IC50 (nM)
Quick note: give the figure in nM, leave out the unit.

CC[C@H](C)[C@H](NC(=O)[C@H](CCC(=O)O)NC(=O)[C@@H](NC(=O)[C@H](CC(C)C)NC(=O)[C@H](CO)NC(=O)[C@H](CCCNC(=N)N)NC(=O)[C@H](CC(C)C)NC(=O)[C@H](CCC(N)=O)NC(=O)[C@H](CC(C)C)NC(=O)[C@H](CCC(=O)O)NC(=O)[C@H](CCCNC(=N)N)NC(=O)[C@H](CC(C)C)NC(=O)CNC(=O)CNC(=O)[C@@H]1CCCN1)[C@@H](C)O)C(=O)O [Peptide 9019.0038] | 110

As a next step, examine the compound that follows.
*Q* What IC50 value was documented for this compound, CC(C)C[C@H](NC(=O)[C@H](CCC(=O)O)NC(=O)[C@H](CCCNC(=N)N)NC(=O)[C@H](CC(C)C)NC(=O)CNC(=O)CNC(=O)[C@@H]1CCCN1C(=O)[C@H](CO)NC(=O)[C@H](C)NC(=O)CNC(=O)[C@@H](NC(=O)[C@@H](NC(=O)[C@@H]1CCCN1C(=O)[C@@H](NC(=O)[C@@H](N)[C@@H](C)O)[C@@H](C)O)C(C)C)[C@@H](C)O)C(=O)O [Peptide 9019.0037] ?
*A* 13200

---

Listed here are molecules together with their documented IC50.
target: purified HLA DRB1*0701 (Homo sapiens, UniProt P01903+P01911, A100R/A102G/A103Q/D57E/D86V/E43K/F76Y/K127E/L162R/M171V/P40G/Q125H/Q99D/R33Q/R42Y/R54Q/S133A/S66F/T210M/V115G/Y107V/Y59L/Y89S); construct: purified from EBV transformed homozygous cell lines or single MHC allele transfected 721.221, C1R, or fibroblast lines; made in house; assay: HLA-DR radioligand binding inhibition assay, DRB1*0701; conditions: IC50 nM purified HLA DRB1 *0701, purified HLA DRB1*0701
Quick note: give the figure in nM, leave out the unit.

CSCC[C@H](NC(=O)CNC(=O)[C@H](CC(C)C)NC(=O)CNC(=O)[C@H](Cc1ccc(O)cc1)NC(=O)[C@@H](N)CS)C(=O)N[C@@H](CCC(=O)O)C(=O)N[C@@H](Cc1c[nH]cn1)C(=O)N[C@@H](CC(C)C)C(=O)N[C@@H](CCCNC(=N)N)C(=O)N[C@@H](CCC(=O)O)C(=O)N[C@H](C(=O)N[C@@H](CCCNC(=N)N)C(=O)N[C@@H](C)C(=O)N[C@H](C(=O)O)C(C)C)C(C)C [Peptide 9019.0044] | 271

As a next step, examine the molecule that follows.
*Q* What IC50 value was documented for this molecule, CC[C@H](C)[C@H](NC(=O)CNC(=O)[C@H](CC(C)C)NC(=O)CN)C(=O)N[C@@H](CO)C(=O)N[C@@H](Cc1c[nH]c2ccccc12)C(=O)N[C@@H](CC(C)C)C(=O)NCC(=O)N[C@@H](CC(C)C)C(=O)N[C@@H](CCCNC(=N)N)C(=O)N[C@@H](CO)C(=O)N[C@@H](CC(C)C)C(=O)N[C@@H](CCCNC(=N)N)C(=O)N[C@@H](CCC(=O)O)C(=O)N[C@@H](CC(C)C)C(=O)O [Peptide 9019.0056] ?
*A* 55
